method.description: Organic dye dispersibility test
Assay type: physicochemical
experimental.context: 0.2 g compound, 0.7 g water, 0.1 g Vali Fast Black 3830; ultrasonic dispersion; after 24 hours; visual

| molecule | Dye dispersibility |
| --- | --- |
| NC(CO)(CO)CO [Working example 28] | ○ ○ ○ ○ |
| NC(CO)(CO)CO [Working example 109] | ○ ○ ○ ○ |
| NC(CO)(CO)CO [Working example 36] | ○ ○ ○ ○ |
| NC(CO)(CO)CO [Working example 48] | ○ ○ ○ ○ |
| NC(CO)CO | ○ |

###

assayed.target: urease (Canavalia ensiformis, UniProt P07374)
Sequence (P07374 whole entry, looked up): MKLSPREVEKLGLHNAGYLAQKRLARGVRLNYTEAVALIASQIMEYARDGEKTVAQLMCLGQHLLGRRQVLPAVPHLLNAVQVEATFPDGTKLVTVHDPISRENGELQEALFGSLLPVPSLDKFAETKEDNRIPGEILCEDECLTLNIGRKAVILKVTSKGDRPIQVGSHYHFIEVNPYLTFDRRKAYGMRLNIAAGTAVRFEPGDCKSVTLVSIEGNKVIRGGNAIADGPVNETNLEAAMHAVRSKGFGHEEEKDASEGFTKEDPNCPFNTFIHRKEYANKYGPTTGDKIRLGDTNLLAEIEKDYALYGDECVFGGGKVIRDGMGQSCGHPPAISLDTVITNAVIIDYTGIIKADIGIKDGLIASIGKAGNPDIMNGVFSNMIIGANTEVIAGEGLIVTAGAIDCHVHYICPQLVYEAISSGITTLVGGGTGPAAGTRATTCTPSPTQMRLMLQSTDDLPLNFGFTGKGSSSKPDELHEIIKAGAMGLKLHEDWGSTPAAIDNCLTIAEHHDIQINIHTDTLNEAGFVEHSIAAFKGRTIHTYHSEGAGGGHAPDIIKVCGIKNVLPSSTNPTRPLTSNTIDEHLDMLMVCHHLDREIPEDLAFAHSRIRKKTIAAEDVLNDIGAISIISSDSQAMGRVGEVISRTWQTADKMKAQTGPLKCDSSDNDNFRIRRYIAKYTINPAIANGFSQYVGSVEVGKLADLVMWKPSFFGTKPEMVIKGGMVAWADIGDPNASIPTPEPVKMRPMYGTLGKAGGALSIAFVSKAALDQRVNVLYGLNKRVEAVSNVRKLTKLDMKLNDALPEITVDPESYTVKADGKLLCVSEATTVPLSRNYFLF
Assay type: biochemical, sword bean
property.label: Enzyme activity retention rate(%) (after 30 days) Stabilizer: Enzyme = 0.1:1

| compound | scale.unit | observed.value |
| --- | --- | --- |
| CCCCn1cc[n+](C)c1.[Br-] [Comparative example 3, BMI-Br, reference compound] | % | 0 |
| O=C[C@H](O)[C@@H](O)[C@H](O)[C@H](O)CO [Comparative example 4, Glucose, reference compound] | % | 0 |
| CC(O)C(=O)O.CCCCN(CCCC)CCCC [Comparative example 1, Tributyl Ammonium Lactate, reference compound] | % | 0 |
| Br.NC(CO)(CO)CO | % | 3 |

###

assayed.target: cytochrome C (Equus caballus, UniProt P00004)
Construct: a reagent produced by NACALAI TESQUE, INC; (Horse Heart, molecular weight 12384) was used; purchased NACALAI TESQUE, INC; host or cells: horse heart (tissue origin)
Sequence (P00004 whole entry): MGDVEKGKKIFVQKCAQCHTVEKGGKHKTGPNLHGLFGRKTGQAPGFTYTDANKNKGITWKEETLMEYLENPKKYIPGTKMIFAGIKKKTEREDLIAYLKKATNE
method.description: Protein long-term stability, 50% aqueous solution
Set-up: species or system Horse
experimental.context: cytochrome C in 50 wt % aqueous solution of compound; 40° C.; after 30 days; 1:1
property.label: Protein long-term stability (after 30 days) Stabilize:Protein = 1:1

| molecule | observed.value |
| --- | --- |
| NC(CO)(CO)CO [Working example 28] | ○ ○ ○ |
| NC(CO)(CO)CO [Working example 48] | ○ |
| OCCNCCO [Working example 24] | ○ |
| NC(CO)(CO)CO [Working example 83] | ○ ○ ○ |
| NC(CO)CO [Working example 26] | ○ |
| NC(CO)(CO)CO [Working example 3] | ○ ○ ○ |
| NC(CO)(CO)CO [Working example 36] | ○ ○ ○ |
| CCC(N)(CO)CO [Working example 27] | ○ ○ |
| NCC(O)C(O)C(O)C(O)CO (stereo not drawn) [Working example 29] | ○ |

###

assayed.target: cytochrome C (Equus caballus, UniProt P00004)
Construct: a reagent produced by NACALAI TESQUE, INC; (Horse Heart, molecular weight 12384) was used; purchased NACALAI TESQUE, INC; host or cells: horse heart (tissue origin)
method.description: Protein long-term stability (IR and UV spectrum), solid sample
Design: species or system Horse
experimental.context: cytochrome C, solid sample; 40° C., 80% RH; after 30 days; Stabilizer:Protein = 0.1:1
property.label: Protein long-term stability (after 30 days) Stabilizer: Protein = 0.1:1

| molecule | observed.value |
| --- | --- |
| NC(CO)(CO)CO [Working example 36] | ◯ |
| NC(CO)(CO)CO [Working example 28] | ◯ |
| NC(CO)(CO)CO [Working example 3] | ◯ |
| NC(CO)(CO)CO [Working example 83] | ◯ |
| CCCCn1cc[n+](C)c1.[Br-] [Comparative example 3, BMI-Br, reference compound] | × |
| OCCNCCO [Working example 24] | ◯ |

###

assayed.target: cytochrome C (Equus caballus, UniProt P00004)
Construct: a reagent produced by NACALAI TESQUE, INC; (Horse Heart, molecular weight 12384) was used; purchased NACALAI TESQUE, INC; host or cells: horse heart (tissue origin)
method.description: Protein long-term stability (IR and UV spectrum), solid sample
Set-up: species or system Horse
experimental.context: cytochrome C, solid sample; 40° C., 80% RH; after 30 days; Stabilizer:Protein = 10:1
property.label: Protein long-term stability (after 30 days) Stabilizer: Protein = 10:1

| compound | assayed.target | observed.value |
| --- | --- | --- |
| O=C[C@H](O)[C@@H](O)[C@H](O)[C@H](O)CO [Comparative example 4, Glucose, reference compound] | cytochrome C (Equus caballus, UniProt P00004) | × |
| NCC(O)C(O)C(O)C(O)CO (centres unmarked) [Working example 29] | cytochrome C (Equus caballus, UniProt P00004) | ◯ |
| NC(CO)(CO)CO [Working example 48] | cytochrome C (Equus caballus, UniProt P00004) | ◯ |
| NC(CO)(CO)CO [Working example 28] | cytochrome C (Equus caballus, UniProt P00004) | ◯ |
| NC(CO)(CO)CO [Working example 36] | cytochrome C (Equus caballus, UniProt P00004) | ◯ |
| NC(CO)(CO)CO [Working example 83] | cytochrome C (Equus caballus, UniProt P00004) | ◯ |
| NC(CO)CO [Working example 26] | cytochrome C (Equus caballus, UniProt P00004) | ◯ |
| CCCCn1cc[n+](C)c1.[Br-] [Comparative example 3, BMI-Br, reference compound] | cytochrome C (Equus caballus, UniProt P00004) | × |
| OCCNCCO [Working example 24] | cytochrome C (Equus caballus, UniProt P00004) | ◯ |
| CCC(N)(CO)CO [Working example 27] | cytochrome C (Equus caballus, UniProt P00004) | ◯ ◯ |
| NC(CO)(CO)CO [Working example 3] | cytochrome C (Equus caballus, UniProt P00004) | ◯ |

###

Below, each entry is listed with its recorded Enzyme activity retention rate(%) (after 30 days) Stabilizer: Enzyme = 1:1.
assayed.target: urease (Canavalia ensiformis, UniProt P07374)
Assay type: biochemical, sword bean
experimental.context: urease in 50 wt % aqueous solution of compound; 40° C., 80% RH; after 30 days; Stabilizer:Enzyme = 1:1
property.label: Enzyme activity retention rate(%) (after 30 days) Stabilizer: Enzyme = 1:1

| compound | assayed.target | observed.value |
| --- | --- | --- |
| OCCNCCO | urease (Canavalia ensiformis, UniProt P07374) | 10 |
| NC(CO)(CO)CO [Working example 36] | urease (Canavalia ensiformis, UniProt P07374) | 39 |
| NC(CO)(CO)CO [Working example 48] | urease (Canavalia ensiformis, UniProt P07374) | 30 |
| NC(CO)(CO)CO [Working example 3] | urease (Canavalia ensiformis, UniProt P07374) | 32 |
| CCC(N)(CO)CO [Working example 35] | urease (Canavalia ensiformis, UniProt P07374) | 10 |
| NC(CO)(CO)CO.O=C(O)c1ccccc1 | urease (Canavalia ensiformis, UniProt P07374) | 21 |
| NC(CO)CO | urease (Canavalia ensiformis, UniProt P07374) | 18 |
| NCC(O)C(O)C(O)C(O)CO (stereo not drawn) | urease (Canavalia ensiformis, UniProt P07374) | 11 |
| CCC(N)(CO)CO [Working example 27] | urease (Canavalia ensiformis, UniProt P07374) | 11 |
| NC(CO)(CO)CO [Working example 28] | urease (Canavalia ensiformis, UniProt P07374) | 15 |
| CC(=O)[O-].C[N+](C)(C)CCO [Comparative example 2, Choline Acetate, reference compound] | urease (Canavalia ensiformis, UniProt P07374) | 2 |
| NC(CO)(CO)CO [Working example 83] | urease (Canavalia ensiformis, UniProt P07374) | 20 |

###

method.description: Carbon nanotube dispersibility test
Assay type: physicochemical
experimental.context: 0.25 g compound, 0.75 g water, 0.025 g carbon nanotubes; visual
property.label: Carbon nanotube dispersibility

| molecule | observed.value |
| --- | --- |
| NC(CO)(CO)CO [Working example 48] | ○ ○ |
| CCC(N)(CO)CO | ○ ○ |
| NC(CO)(CO)CO [Working example 28] | ○ ○ |
| NC(CO)CO | ○ |

###

Entries and their Enzyme activity retention rate(%) (after 30 days) Stabilizer: Enzyme = 0.1:1
assayed.target: UniProt P07374
Type: biochemical, sword bean
experimental.context: solid sample, 40° C., 80% RH, after 30 days, Stabilizer:Enzyme = 0.1:1
property.label: Enzyme activity retention rate(%) (after 30 days) Stabilizer: Enzyme = 0.1:1

| compound | assayed.target | observed.value |
| --- | --- | --- |
| CCC(N)(CO)CO [Working example 27] | UniProt P07374 | 8 |
| CC(=O)[O-].C[N+](C)(C)CCO [Comparative example 2, Choline Acetate, reference compound] | UniProt P07374 | 2 |
| NC(CO)CO [Working example 26] | UniProt P07374 | 10 |
| OCCNCCO [Working example 24] | UniProt P07374 | 9 |
| CCC(N)(CO)CO [Working example 35] | UniProt P07374 | 9 |
| NC(CO)(CO)CO [Working example 3] | UniProt P07374 | 20 |
| NC(CO)(CO)CO [Working example 36] | UniProt P07374 | 27 |
| NC(CO)(CO)CO [Working example 83] | UniProt P07374 | 16 |
| NC(CO)(CO)CO [Working example 48] | UniProt P07374 | 18 |
| NCC(O)C(O)C(O)C(O)CO (stereo not drawn) [Working example 29] | UniProt P07374 | 5 |
| NC(CO)(CO)CO [Working example 28] | UniProt P07374 | 15 |
| NC(CO)(CO)CO.O=C(O)c1ccccc1 [Working example 60] | UniProt P07374 | 7 |
